# methodDescription: Cytotoxicity against human HCT15 cell line
# Assay type: cell-based
# protocolConditions: HCT-15 cells, read-out: ED50 (the source's name)
property: CC50

Ask: Query: CC50; subject: O=C1N[C@H](c2c[nH]c3ccccc23)CN[C@H]1c1c[nH]c2cc(Br)ccc12
Result: > 10 µg/mL

Ask: And the next one, O=C1NC[C@@H](c2c[nH]c3ccccc23)N[C@H]1c1c[nH]c2cc(Br)ccc12 ?
Result: > 10 µg/mL

Ask: And the next one, O=C(C1=NC(c2c[nH]c3ccccc23)CN1)c1c[nH]c2cc(Br)ccc12 (centres undefined) ?
Result: > 30 µg/mL

Ask: And the next one, O=C1NC[C@@H](c2c[nH]c3ccccc23)N[C@H]1c1c[nH]c2ccccc12 ?
Result: > 10 µg/mL
